molecular target: T1, human ROR2 expressed on the cell surface (human, UniProt Q01974 34-943); assay: flow cytometry, CHP100 cells (EW/PNET); set-up: unit not given here
T1 construct: Endogenous ROR2 of human tumour cell lines; also called cell surface ROR2; ROR2 on tumour cell lines
T1 sequence (Q01974 34-943 limits assumed): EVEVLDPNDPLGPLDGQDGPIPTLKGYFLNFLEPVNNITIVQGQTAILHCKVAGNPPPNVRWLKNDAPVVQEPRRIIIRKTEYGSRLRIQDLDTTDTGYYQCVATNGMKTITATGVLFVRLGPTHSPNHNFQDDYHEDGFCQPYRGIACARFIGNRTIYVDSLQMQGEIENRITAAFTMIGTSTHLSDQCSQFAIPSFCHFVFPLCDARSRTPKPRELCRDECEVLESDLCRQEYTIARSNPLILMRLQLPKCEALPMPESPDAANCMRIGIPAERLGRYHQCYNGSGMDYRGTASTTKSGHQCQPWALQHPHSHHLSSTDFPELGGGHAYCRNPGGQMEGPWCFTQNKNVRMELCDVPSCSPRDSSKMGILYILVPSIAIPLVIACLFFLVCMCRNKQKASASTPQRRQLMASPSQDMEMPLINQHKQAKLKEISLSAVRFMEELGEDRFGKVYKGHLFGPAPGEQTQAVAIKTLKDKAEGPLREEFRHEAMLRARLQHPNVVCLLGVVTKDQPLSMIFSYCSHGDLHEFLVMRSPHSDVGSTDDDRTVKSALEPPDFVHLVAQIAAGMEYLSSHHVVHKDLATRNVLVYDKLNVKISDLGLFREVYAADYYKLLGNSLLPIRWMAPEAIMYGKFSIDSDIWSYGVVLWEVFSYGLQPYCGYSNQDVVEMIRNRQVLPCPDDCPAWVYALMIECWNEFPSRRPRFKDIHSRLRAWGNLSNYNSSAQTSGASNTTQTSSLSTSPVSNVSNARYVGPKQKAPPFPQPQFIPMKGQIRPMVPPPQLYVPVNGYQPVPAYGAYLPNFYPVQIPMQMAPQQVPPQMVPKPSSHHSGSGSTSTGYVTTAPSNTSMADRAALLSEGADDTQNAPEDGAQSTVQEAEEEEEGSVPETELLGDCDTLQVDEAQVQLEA

Binder: ROR2-27 full length human IgG1 antibody (antibody, V domains shown, also called clone #27; clone #027 IgG1) VH: QVQLVESGAEVKKPGESLKISCKASGYSFSNYWIGWVRQMPGKGLEWMGIIYPDDSDTRYSPSFQGQVTISADKSISTAYLQWYSLKVADTAKYYCVRPRGAFDIWGQGTTVTVSS VL: QSVLTQPPSVSGAPGQRVTISCTGSSSNIGAGHAVHWYQQLPGTAPKLLIYDNANRPSGVPDRFSGSQSGTSASLAITGLQTGDEADYYCGTWDDSPSAYVFGTGTKVTVLG
binding intensity: 18

Binder: ROR2-241 full length human IgG1 antibody (antibody, V domains shown) VH: EVQLVQSGAEVKKPGASVKVSCKASGYTFTNYYIHWVRQAPGQGLEWMGIINPTSGRTRYAQRFQGRVTMTRDTSTNTVYMDLSSLRSEDTAMYYCARSGYYWGVNGDQWGQGTLVTVSS VL: SYELTQPLSVSVALGQTARITCGGNNIGSKNVHWYQQKPGQAPVLVIYRDSNRPSGIPERFSGSNSGNTATLTISRAQAGDEADYYCQVWDSSIVVFGGGTKLTVLG
binding intensity: 16
